- ASSAYED SYSTEM: T1, recombinant human IL4Rα-his protein (human, UniProt P24394 26-232, biotinylated in the capture ELISA and the benchmark blocking ELISA)
- T1 construct: also called biotinylated human IL4Rα-his protein
- EXPERIMENT SUMMARY: SPR Biacore, mAb captured, IL4Rα-his analyte
- Protocol: Briefly, a goat anti-human IgG (GE Healthcare, Cat. No. BR100839, Human Antibody Capture Kit) was covalently attached to a CMS chip (carboxymethylated dextran-coated chip) via the primary amine group using a standard amine coupling kit supplied by Biacore (GE Healthcare, Pittsburgh, PA, USA). […] The association and dissociation curves were fitted according to a 1:1 Langmuir binding model using BIA evaluation software, and the KD, Kₐ, and Kd values were determined. […]
REPORTED PROPERTY: Dissociation (%)
Express your answer in %, writing the number without its unit.

Previously resolved entries follow.
- BINDER: "huC2C1A1A1-V16 (antibody, human IgG4 S228P, kappa, V domains shown, Humanized IgG4/kappa) VH: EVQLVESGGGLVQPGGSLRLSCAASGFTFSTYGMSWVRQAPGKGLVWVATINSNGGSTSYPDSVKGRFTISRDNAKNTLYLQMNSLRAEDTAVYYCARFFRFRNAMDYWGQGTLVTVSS VL: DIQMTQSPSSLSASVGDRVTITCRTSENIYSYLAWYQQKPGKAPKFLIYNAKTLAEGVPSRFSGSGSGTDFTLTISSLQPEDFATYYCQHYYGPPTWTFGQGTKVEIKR"
  READING UNIT: "%"
  Dissociation (%): -0.42
- BINDER: "huC2C1A1A1-V3 (antibody, human IgG4 S228P, kappa, V domains shown, Humanized IgG4/kappa) VH: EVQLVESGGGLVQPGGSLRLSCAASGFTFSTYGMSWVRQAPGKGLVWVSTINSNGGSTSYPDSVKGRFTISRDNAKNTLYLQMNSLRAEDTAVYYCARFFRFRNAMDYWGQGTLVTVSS VL: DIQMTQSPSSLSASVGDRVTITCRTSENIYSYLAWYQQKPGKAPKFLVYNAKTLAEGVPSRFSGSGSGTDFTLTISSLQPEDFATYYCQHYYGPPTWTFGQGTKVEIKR"
  READING UNIT: "%"
  Dissociation (%): -0.62
- BINDER: "huC2C1A1A1-V12 (antibody, human IgG4 S228P, kappa, V domains shown, Humanized IgG4/kappa) VH: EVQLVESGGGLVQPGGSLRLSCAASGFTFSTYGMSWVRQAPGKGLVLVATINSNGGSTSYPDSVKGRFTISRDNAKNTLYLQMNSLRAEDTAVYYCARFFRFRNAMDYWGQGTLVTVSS VL: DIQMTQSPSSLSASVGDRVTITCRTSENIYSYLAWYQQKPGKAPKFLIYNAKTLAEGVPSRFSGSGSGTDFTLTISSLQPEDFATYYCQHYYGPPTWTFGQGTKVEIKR"
  READING UNIT: "%"
  Dissociation (%): -1.88

Problem: Fill in: Dissociation (%) of huC2C1A1A1-V15 (antibody, human IgG4 S228P, kappa, V domains shown, Humanized IgG4/kappa) VH: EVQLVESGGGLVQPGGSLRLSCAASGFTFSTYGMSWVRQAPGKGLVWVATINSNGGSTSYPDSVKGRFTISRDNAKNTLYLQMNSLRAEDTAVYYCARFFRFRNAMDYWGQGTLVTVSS VL: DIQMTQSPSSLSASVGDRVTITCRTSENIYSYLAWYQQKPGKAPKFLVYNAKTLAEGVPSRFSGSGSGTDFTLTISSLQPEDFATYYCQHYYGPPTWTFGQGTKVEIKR is ___
Result: 0.29

These data points were gathered from patent US20240343815A1.
